The origin of these recorded values is paper PMC4081100.

ASSAYED_TARGET: GST-NST2(1-184) (Arabidopsis thaliana, UniProt Q9M274 1-184)
Sequence: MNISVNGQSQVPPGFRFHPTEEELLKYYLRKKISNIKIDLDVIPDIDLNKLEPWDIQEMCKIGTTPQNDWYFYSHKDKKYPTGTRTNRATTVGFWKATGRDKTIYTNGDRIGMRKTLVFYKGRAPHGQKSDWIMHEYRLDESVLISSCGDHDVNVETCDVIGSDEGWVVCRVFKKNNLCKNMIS
PROCEDURE_SUMMARY: universal protein binding microarray (PBM); high values mean tight binding
TEST_SETTINGS: protein: recombinant; tags: GST; chain copies: 2; dsDNA, one strand shown
VALUE_KIND: binding signal (E-score)
Field: numeric (E-score). Do not append units.

Solved entries:
Ask | Need binding signal, item ACGGCAAT
Reply | 0.286

Ask | GGCGTGTA ?
Reply | 0.14

Ask | CACGACAC ?
Reply | 0.134

More entries:
Ask | Need binding signal, item ACGCCATG
Reply | 0.128

Ask | GTAAGTAA ?
Reply | 0.239

Ask | AAGTAAGC ?
Reply | 0.171

---

Entries and their measured binding signal follow.
ASSAYED_TARGET: GST-SND1(1-203) (Arabidopsis thaliana, UniProt Q9LPI7 1-203)
Sequence: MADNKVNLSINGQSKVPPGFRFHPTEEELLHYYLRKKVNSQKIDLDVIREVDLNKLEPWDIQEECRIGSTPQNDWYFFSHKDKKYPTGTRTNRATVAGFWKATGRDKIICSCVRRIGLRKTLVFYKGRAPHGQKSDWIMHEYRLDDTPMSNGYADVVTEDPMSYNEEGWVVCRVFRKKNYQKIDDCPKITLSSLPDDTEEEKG
PROCEDURE_SUMMARY: universal protein binding microarray (PBM); high values mean tight binding
TEST_SETTINGS: protein: recombinant; tags: GST; chain copies: 2; dsDNA, one strand shown
Express your answer as a number followed by its unit.

Solved entries:
Ask | Form entry - test system: GST-SND1(1-203) (Arabidopsis thaliana, UniProt Q9LPI7 1-203); read-out: binding signal; sequence: CAAGCAAG
Reply | 0.395 E-score

Ask | ACGCTACT ?
Reply | 0.394 E-score

Ask | ACGCCACC ?
Reply | 0.408 E-score

More entries:
Ask | Form entry - test system: GST-SND1(1-203) (Arabidopsis thaliana, UniProt Q9LPI7 1-203); read-out: binding signal; sequence: CACGCAAG
Reply | 0.404 E-score

Ask | CCCTCCCC ?
Reply | 0.405 E-score

---

Entries and their measured binding signal follow.
ASSAYED_TARGET: GST-NAP(1-166) (Arabidopsis thaliana, UniProt O49255 1-166)
Sequence: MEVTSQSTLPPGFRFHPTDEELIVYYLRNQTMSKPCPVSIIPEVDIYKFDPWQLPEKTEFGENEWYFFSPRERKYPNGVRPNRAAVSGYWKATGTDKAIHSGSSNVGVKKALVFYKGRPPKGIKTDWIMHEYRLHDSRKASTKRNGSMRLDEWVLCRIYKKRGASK
PROCEDURE_SUMMARY: universal protein binding microarray (PBM); transcription factors of Arabidopsis thaliana; high values mean tight binding
TEST_SETTINGS: protein: recombinant; tags: GST; chain copies: 2; dsDNA, one strand shown
Field: numeric (E-score). Do not append units.

Ask | Need binding signal, item AACACGCT
Reply | 0.2

Ask | AGTCAATC ?
Reply | 0.0978

Please examine the following record next.
Ask | Need binding signal, item GCACGGTA
Reply | 0.102
